Biological target: neuraminidase of influenza A virus A/Jena/5258/2009 (H1N1-subtype) (Influenza A virus)
Test: biochemical
Would you mind telling me the reported IC50 of each entry?
State just the number; it will be interpreted in pM.

Looking for the measured IC50 of CCOC(=O)C1=C[C@@H](OC(CC)CC)[C@H](NC(C)=O)[C@@H](N)C1 [Oseltamivir, reference compound] , can you help?
100

Which value of IC50 has been reported for CCC(CC)O[C@@H]1C=C(C(=O)O)C[C@H](NC(C)=N)[C@H]1NC(C)=O in the records?
100

* * *

Assay: in vivo
Conditions: Sprague Dawley, rat, in vivo, po
Parameter: half-life

Endpoint output: half-life of CCC(CC)O[C@@H]1C=C(C(=O)O)C[C@H](NC(=N)N)[C@H]1NC(C)=O [Compound 9] . Value?
~98 min

For CCC(CC)O[C@@H]1C=C(C(=O)O)C[C@H](NC(C)=N)[C@H]1NC(C)=O [Compound 3] , what is its reported half-life?
~112 min

* * *

Target: albumin (Homo sapiens)
Sequence (P02768 25-609): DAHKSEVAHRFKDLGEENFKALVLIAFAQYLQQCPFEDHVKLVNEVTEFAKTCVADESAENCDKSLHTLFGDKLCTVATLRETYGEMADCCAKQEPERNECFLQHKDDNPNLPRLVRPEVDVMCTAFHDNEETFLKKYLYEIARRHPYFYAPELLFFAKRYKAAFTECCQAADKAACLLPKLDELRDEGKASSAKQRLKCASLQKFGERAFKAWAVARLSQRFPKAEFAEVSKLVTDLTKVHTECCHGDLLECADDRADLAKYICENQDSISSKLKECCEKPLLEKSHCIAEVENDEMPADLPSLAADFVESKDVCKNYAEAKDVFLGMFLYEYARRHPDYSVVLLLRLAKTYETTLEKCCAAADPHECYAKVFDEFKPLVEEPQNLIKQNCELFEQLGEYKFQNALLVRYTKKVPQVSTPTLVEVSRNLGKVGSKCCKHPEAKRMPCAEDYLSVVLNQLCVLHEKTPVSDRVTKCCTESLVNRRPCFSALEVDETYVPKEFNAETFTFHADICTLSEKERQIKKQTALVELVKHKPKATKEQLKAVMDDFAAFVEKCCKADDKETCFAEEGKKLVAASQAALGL
Type: in vitro ADME
Conditions: 4% albumin solution, average of three concentrations (10, 25, 50 μM)
Description: 3. Determination of Protein Binding of the Amidine Effective Form (3) as Well as of Prodrugs Thereof (2, 4) and of the Guanidine Effective Form (9) as Well as of Prodrugs Thereof (6, 10) The plasma protein binding was carried out in three different concentrations (10, 25, and 50 μM). A 4% albumin solution was used as protein solutions. In each case, 50 μl of a 10-fold concentrated substance solution were pipetted in 450 μl of the protein solution. […] The filtrate was analyzed by HPLC. […]
Counter-ions that a name gives are not always drawn.
I'd appreciate it if you could supply Protein binding values for the items below.
Report only the number, with the unit % understood.

Request the reported Protein binding associated with CCOC(=O)C1=C[C@@H](OC(CC)CC)[C@H](NC(C)=O)[C@@H](N/C(C)=N/O)C1 [Compound 4]
26.7

Given the molecule CCOC(=O)C1=C[C@@H](OC(CC)CC)[C@H](NC(C)=O)[C@@H](NC(=N)N)C1 [Compound 10] , what is its reported Protein binding?
30.1

Would you kindly share the measured Protein binding for CCC(CC)O[C@@H]1C=C(C(=O)O)C[C@H](NC(=N)N)[C@H]1NC(C)=O [Compound 9] ?
0.4

Entry under review: CCOC(=O)C1=C[C@@H](OC(CC)CC)[C@H](NC(C)=O)[C@@H](NC(N)=NO)C1 [Compound 6] . Reported Protein binding?
37.5

// lookup Protein binding for CCOC(=O)C1=C[C@@H](OC(CC)CC)[C@H](NC(C)=O)[C@@H](NC(C)=N)C1 [Compound 2, hydrobromide]
34.8

Look at this molecule and give its reported Protein binding. CCC(CC)O[C@@H]1C=C(C(=O)O)C[C@H](NC(C)=N)[C@H]1NC(C)=O [Compound 3]
2.2

* * *

Could you please report measured solubility at 30 min for the items listed next?
Experiment: physchem
Assay type: physicochemical
Settings: aqueous buffer, thermodynamic from solid
Where a name gives a salt, the structure may show the parent alone.

For the compound shown here, CCOC(=O)C1=C[C@@H](OC(CC)CC)[C@H](NC(C)=O)[C@@H](N/C(C)=N/O)C1 , give the reported solubility at 30 min.
> 20 mM

I'd like to know its solubility at 30 min. The compound in question is CCOC(=O)C1=C[C@@H](OC(CC)CC)[C@H](NC(C)=O)[C@@H](NC(=N)N)C1
> 50 mM

Find the recorded solubility at 30 min belonging to CCOC(=O)C1=C[C@@H](OC(CC)CC)[C@H](NC(C)=O)[C@@H](NC(N)=NO)C1 and report it.
> 50 mM

Give the measured solubility at 30 min of CCOC(=O)C1=C[C@@H](OC(CC)CC)[C@H](NC(C)=O)[C@@H](NC(C)=N)C1 [Compound 2, hydrobromide] .
> 50 mM

solubility at 30 min for CCC(CC)O[C@@H]1C=C(C(=O)O)C[C@H](NC(C)=N)[C@H]1NC(C)=O ?
> 50 mM
